Numbers sourced from ChEMBL document CHEMBL1240532.

Assayed System: 5-hydroxytryptamine receptor 2A (Homo sapiens)
Sequence (P28223 whole entry): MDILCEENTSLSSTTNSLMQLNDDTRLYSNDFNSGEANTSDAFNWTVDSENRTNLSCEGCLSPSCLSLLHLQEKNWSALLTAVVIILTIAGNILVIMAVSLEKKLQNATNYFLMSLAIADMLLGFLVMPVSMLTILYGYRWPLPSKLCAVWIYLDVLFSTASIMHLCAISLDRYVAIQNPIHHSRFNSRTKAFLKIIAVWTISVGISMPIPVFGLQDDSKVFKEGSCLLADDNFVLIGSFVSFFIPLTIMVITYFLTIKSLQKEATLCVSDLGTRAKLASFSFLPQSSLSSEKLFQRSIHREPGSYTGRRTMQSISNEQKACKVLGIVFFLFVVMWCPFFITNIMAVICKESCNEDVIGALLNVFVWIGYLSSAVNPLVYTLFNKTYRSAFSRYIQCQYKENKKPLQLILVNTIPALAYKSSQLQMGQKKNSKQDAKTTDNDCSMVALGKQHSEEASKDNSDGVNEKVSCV
Experimental Protocol: Binding affinity to human recombinant serotonin 5-HT2A receptor

- Compound: "C[C@H]1Cc2c([nH]c3cc(Cl)c(F)cc23)[C@@]2(N1)C(=O)Nc1ccc(Cl)cc12 [CIPARGAMIN]"
  IC50: "> 10 µM"

====

Assayed System: 5-hydroxytryptamine receptor 1A (Homo sapiens, UniProt P08908)
Sequence (P08908 whole entry): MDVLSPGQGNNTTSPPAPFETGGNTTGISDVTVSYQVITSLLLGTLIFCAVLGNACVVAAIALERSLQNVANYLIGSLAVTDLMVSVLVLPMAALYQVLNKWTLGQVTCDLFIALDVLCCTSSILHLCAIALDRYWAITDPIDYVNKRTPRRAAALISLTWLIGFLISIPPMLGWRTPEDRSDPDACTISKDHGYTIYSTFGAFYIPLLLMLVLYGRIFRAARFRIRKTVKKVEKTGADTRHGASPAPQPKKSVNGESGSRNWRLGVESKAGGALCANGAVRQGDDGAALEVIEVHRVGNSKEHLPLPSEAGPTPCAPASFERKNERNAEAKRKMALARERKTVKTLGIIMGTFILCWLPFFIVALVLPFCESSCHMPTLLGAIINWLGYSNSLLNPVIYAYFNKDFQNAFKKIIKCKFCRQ
Experimental Protocol: Binding affinity to human recombinant serotonin 5-HT1A receptor
Measurement Type: IC50

- Chemical String: "C[C@H]1Cc2c([nH]c3cc(Cl)c(F)cc23)[C@@]2(N1)C(=O)Nc1ccc(Cl)cc12"
  Observed Result: "> 10 µM"

====

Assayed System: Glucocorticoid receptor (Homo sapiens)
Sequence (P04150 whole entry): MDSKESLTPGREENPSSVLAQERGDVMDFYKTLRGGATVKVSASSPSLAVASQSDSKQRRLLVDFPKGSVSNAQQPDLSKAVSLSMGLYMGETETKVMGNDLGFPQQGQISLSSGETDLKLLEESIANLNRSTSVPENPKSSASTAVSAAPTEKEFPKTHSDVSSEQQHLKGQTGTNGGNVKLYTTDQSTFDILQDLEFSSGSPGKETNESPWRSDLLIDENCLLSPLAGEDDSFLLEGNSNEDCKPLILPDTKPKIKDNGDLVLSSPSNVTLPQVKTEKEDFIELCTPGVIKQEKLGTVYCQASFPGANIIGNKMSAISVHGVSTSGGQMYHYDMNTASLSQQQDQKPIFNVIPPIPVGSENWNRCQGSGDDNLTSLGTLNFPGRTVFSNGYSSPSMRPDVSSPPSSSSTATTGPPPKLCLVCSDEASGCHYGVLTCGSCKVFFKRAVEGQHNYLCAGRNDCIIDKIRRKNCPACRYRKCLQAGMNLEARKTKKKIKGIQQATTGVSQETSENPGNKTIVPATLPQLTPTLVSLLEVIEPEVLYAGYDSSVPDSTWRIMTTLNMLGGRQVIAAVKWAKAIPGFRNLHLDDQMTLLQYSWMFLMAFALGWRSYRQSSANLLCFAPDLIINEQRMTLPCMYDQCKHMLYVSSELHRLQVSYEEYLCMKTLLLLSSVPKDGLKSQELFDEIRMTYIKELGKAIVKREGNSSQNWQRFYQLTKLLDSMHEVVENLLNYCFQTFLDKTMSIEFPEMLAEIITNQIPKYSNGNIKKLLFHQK
Experimental Protocol: Binding affinity to human recombinant glucocorticoid receptor

- Chemical String: "C[C@H]1Cc2c([nH]c3cc(Cl)c(F)cc23)[C@@]2(N1)C(=O)Nc1ccc(Cl)cc12"
  IC50: "> 30 µM"

====

Experimental Protocol: AUC (0 to infinity) in Wistar rat at 23.7 mg/kg, po
Assay type: ADME, organism-based
Parameters: time infinity, dose 23.7 mg/kg, route oral
Assay Context: plasma
Measurement Type: AUC(0-inf) (µM·h)

- Chemical String: "C[C@H]1Cc2c([nH]c3cc(Cl)c(F)cc23)[C@@]2(N1)C(=O)Nc1ccc(Cl)cc12"
  Unit Text: "µM·h"
  Observed Result: 524

====

Assayed System: UniProtKB P28335
Sequence (P28335 whole entry): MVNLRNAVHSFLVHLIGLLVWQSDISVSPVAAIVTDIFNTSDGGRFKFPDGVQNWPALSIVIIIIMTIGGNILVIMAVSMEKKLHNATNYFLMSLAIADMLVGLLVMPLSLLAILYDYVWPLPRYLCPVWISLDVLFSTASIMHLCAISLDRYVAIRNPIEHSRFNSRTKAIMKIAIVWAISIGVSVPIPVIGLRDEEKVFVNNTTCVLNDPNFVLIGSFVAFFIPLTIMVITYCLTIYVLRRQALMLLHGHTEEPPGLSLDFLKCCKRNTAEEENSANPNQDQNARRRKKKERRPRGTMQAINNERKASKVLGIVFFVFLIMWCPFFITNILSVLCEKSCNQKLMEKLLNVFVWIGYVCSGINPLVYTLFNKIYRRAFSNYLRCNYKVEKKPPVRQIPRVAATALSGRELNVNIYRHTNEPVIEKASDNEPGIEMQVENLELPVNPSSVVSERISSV
Experimental Protocol: Binding affinity to human recombinant serotonin 5HT2C receptor

- Compound: "C[C@H]1Cc2c([nH]c3cc(Cl)c(F)cc23)[C@@]2(N1)C(=O)Nc1ccc(Cl)cc12 [CIPARGAMIN]"
  IC50: "> 10 µM"

====

Assayed System: Neurotensin receptor type 1 (Homo sapiens)
Sequence (P30989 whole entry): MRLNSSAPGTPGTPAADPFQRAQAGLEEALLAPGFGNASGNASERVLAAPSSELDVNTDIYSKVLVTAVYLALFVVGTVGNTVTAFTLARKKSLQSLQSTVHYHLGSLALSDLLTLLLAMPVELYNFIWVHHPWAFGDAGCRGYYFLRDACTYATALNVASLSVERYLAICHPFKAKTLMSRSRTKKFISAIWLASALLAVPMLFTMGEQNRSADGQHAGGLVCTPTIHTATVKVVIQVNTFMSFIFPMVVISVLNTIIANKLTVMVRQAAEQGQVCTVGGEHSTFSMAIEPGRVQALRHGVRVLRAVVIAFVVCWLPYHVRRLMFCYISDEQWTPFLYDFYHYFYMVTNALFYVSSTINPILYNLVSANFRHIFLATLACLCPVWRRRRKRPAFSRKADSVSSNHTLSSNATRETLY
Experimental Protocol: Binding affinity to human recombinant neurotensin NT1 receptor
pIC50: −log10 of the molar value.
Measurement Type: pIC50

- Chemical String: "C[C@H]1Cc2c([nH]c3cc(Cl)c(F)cc23)[C@@]2(N1)C(=O)Nc1ccc(Cl)cc12"
  Measurement Type: "pIC50"
  Observed Result: "< 5.00"

====

Tested on: Plasmodium falciparum
Type: functional, organism-based
Assay Context: Dd2, 72 h, read-out: IC50
Each entry below lists one item and its recorded log10 IC50 value.
Measurement Type: log10 IC50 (log10 of the value in nM)

- Compound: "C/C=C(/C)C(=O)O[C@H]1C(C)=C2[C@H]([C@@H]1OC(=O)CCCCCCC)[C@@](C)(OC(C)=O)C[C@H](OC(=O)CCC)[C@@]1(O)[C@H]2OC(=O)[C@@]1(C)O"
  Assayed System: "Plasmodium falciparum"
  Observed Result: 3.02
- Compound: "CC(=O)C1=C(O)[C@@H]2[C@H]3c4c[nH]c5cccc(c45)C[C@H]3C(C)(C)N2C1=O"
  Assayed System: "Plasmodium falciparum"
  Observed Result: 3.51
- Compound: "C[C@H]1Cc2c([nH]c3cc(Cl)c(F)cc23)[C@@]2(N1)C(=O)Nc1ccc(Cl)cc12"
  Assayed System: "Plasmodium falciparum"
  Observed Result: 0.51
- Compound: "O=C1C(O)=C([C@H]2CC[C@H](c3ccc(Cl)cc3)CC2)C(=O)c2ccccc21"
  Assayed System: "Plasmodium falciparum"
  Observed Result: -0.22
- Compound: "COc1ccc(C[C@H]2NC[C@H](O)[C@H]2OC(C)=O)cc1"
  Assayed System: "Plasmodium falciparum"
  Observed Result: 0.81
- Compound: "OC(c1cc(C(F)(F)F)nc2c(C(F)(F)F)cccc12)C1CCCCN1 (centres undefined)"
  Assayed System: "Plasmodium falciparum"
  Observed Result: 0.90
- Compound: "C/C=C/[C@H]1O[C@@](O)([C@@H](C)[C@H](O)[C@H](C)[C@H]2OC(=O)/C(OC)=C/C(C)=C/[C@@H](C)[C@@H](O)[C@@H](CC)[C@@H](O)[C@H](C)C/C(C)=C/C=C/[C@@H]2OC)C[C@@H](O[C@H]2C[C@@H](O)[C@H](OC(N)=O)[C@@H](C)O2)[C@@H]1C"
  Assayed System: "Plasmodium falciparum"
  Observed Result: 0.85
- Compound: "C[C@@H]1CC[C@H]2[C@@H](C)C(=O)O[C@@H]3O[C@@]4(C)CC[C@@H]1[C@]32OO4"
  Assayed System: "Plasmodium falciparum"
  Observed Result: 1.20
